// provenance: patent US20110135573A1

study.system: T1, mouse MMP-2 (Mus musculus, UniProt P33434)
T1 construct: purchased R&D Systems 924-MP-010
T1 sequence (P33434 110-662): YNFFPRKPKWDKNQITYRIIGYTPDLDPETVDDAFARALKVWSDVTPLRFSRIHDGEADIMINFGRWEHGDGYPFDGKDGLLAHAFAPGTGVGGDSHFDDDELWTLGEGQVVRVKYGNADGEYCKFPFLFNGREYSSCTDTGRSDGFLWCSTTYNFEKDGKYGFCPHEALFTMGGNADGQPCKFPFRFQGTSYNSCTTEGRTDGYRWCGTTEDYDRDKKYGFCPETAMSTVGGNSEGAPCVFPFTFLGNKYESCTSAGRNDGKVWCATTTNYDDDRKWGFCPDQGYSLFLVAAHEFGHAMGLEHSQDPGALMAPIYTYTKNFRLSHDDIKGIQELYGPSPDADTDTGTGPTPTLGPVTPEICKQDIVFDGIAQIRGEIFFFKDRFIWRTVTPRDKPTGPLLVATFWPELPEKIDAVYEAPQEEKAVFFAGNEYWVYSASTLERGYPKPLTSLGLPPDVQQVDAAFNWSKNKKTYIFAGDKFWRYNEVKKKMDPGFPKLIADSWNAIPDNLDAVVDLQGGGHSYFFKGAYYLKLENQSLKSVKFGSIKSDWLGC
method.description: Enzyme inhibition assay (single point inhibition, IC50/Ki,app), substrate M-2350
Type: biochemical
condition.info: medium-scale sFab; Table 10
Catalogue of Ki readings, one per entry.
// return numeric value only (unit: nM, not printed)

M0307-F04: affinity matured variant of M237-D02, sFab (antibody, V domains shown) VH: EVQLLESGGGLVQPGGSLRLSCAASGFTFSLYDMWWVRQAPGKGLEWVSVIYSSGGYTGYADSVKGRFTISRDNSKNTLYLQMNSLRAEDTAVYYCAKDRAYGDYVGWNGFDYWGQGTLVTVSS VL: QDIQMTQSPATLSLSPGERATLSCRASQSISSFLAWYQQKPGQAPRLLIYDASYRATGIPARFSGSGSGTDFTLTISSLEPEDYAVYYCQQRGNWPITFGQGTRLEIK :: 2.2

In the following, a different molecule is considered.
Lookup: // Ki lookup, key: M0299-A12: affinity matured variant of M237-D02, sFab (antibody, V domains shown) VH: EVQLLESGGGLVQPGGSLRLSCAASGFTFSHYPMWWVRQAPGKGLEWVSYISSSGGGTFYADSVKGRFTISRDNSKNTLYLQMNSLRAEDTAVYYCAKDRAYGDYVGWNGFDYWGQGTLVTVSS VL: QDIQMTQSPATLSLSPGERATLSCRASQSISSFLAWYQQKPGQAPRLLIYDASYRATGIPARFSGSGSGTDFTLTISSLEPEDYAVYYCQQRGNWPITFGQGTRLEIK
Found: 30
